molecular target: T1, human MSLN-FL-his protein (human, UniProt Q13421 296-580); experiment: ELISA on coated antigen, antibody 0.001 nM
T1 construct: Made in HEK293E cells, purified on nickel column; it is put last here; also called human MSLN full-length protein; hMSLN-FL-his; not shown: His tag
T1 sequence (Q13421 other isoform, or with tags, fused parts or gaps): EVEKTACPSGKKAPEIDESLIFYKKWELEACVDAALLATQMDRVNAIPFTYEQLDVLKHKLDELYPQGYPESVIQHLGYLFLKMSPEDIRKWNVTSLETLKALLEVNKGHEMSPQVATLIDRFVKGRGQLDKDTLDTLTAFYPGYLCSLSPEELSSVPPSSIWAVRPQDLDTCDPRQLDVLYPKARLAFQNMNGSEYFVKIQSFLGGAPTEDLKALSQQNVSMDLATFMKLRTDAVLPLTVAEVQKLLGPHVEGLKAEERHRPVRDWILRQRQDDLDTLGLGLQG
measurement_name: OD450 (OD)

- S009-F8-5.15 (antibody, human IgG1, kappa, V domains shown, Human-murine chimeric antibody, human IgG1 heavy and kappa light constant regions) VH: QVQLQQPGTELVKPGASVKLSCKASGYTFTSYWMHWVKQRPGQGLEWIGHSNPSNGGTNYNEKFKSKATLTVDKSSSTAYMQLSSLTSEDSAVYYCARWVRGSNYEYFDVWGTGTTVTVSS VL: DIVMTQSQKFMSTTVGDRVSIICKASQNVGSAVAWCQQKPGQSPKLLIYSASNRYTGVPDRFTGSGSGTDFTLTISNMQSEDLADYFCQQYSSYPLTFAGGTKLEIKR: 0.08
- S009-F8-19.21 (antibody, human IgG1, kappa, V domains shown, Human-murine chimeric antibody, human IgG1 heavy and kappa light constant regions) VH: EFQLQQSGPELVKPGASVKISCKTSGYSFTDYNMNWVKQSNGKSLEWIGVINPNYGTTGYNQKFKGKATLTVDQSSSTAYMQLNSLTSEDSAVYYCARGGYDGEAMDYWGHGTSVTVSS VL: QIVLTQSPAIMSASPGEKVTMTCSASSSVNYMHWYQQKSGTSPKRWIYDTSKLASGVPARFSGSGSGTSYSLTISSMEAEDAATYYCQQWSSYPPTFGGGTKLEIKR: 0.1
